# systemName: T1, human glycine transporter type 1 (Gly-T1) (Homo sapiens, UniProt P48067)
# T1 construct: JAR) cells endogenously expressing human glycine transporter type 1 (Gly-T1); endogenous in cells
# T1 sequence (P48067 1-706): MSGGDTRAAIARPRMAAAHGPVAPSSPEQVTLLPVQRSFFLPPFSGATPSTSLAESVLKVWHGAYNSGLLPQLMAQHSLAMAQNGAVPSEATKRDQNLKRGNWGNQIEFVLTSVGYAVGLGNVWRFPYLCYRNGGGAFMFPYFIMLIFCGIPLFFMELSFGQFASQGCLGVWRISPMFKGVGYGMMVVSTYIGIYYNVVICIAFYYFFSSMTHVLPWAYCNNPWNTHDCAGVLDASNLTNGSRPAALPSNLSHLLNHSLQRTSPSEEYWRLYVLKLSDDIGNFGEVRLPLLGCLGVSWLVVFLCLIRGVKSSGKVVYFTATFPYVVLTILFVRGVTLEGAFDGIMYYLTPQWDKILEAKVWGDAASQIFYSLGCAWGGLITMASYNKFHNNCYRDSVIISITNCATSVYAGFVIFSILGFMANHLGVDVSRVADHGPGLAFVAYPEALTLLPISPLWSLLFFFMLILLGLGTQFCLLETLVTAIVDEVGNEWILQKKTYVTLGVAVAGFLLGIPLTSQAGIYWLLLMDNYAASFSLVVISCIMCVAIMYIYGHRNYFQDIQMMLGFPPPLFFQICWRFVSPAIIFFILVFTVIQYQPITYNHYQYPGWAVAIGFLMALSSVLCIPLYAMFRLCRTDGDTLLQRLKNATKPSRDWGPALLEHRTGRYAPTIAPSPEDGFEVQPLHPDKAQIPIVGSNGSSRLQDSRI
# testName: Glycine Transporter 1 (GlyT1) uptake assay, [14C] glycine uptake in JAR cells
# condition: approximate IC50; inhibition of [14C] glycine (5 μM) uptake, JAR cells endogenously expressing human Gly-T1
Structures can show the parent of a compound that is named as a salt.
recordedMetric: log10 IC50 (log10 of the value in nM)
# values: log10(IC50), units nM

Fill in reported log10 IC50 for this entry: `Cc1cccc(-c2ccc([C@@H](c3ccccc3)N3CCN(CC(=O)O)[C@H](C)C3)cc2)c1`
0.33

Give the reported value of log10 IC50 for this record: C[C@@H]1CN([C@H](c2ccccc2)c2cccc(C(F)(F)F)c2)CCN1CC(=O)O [Cpd 24, dihydrochloride salt]
0.60

Give me measured log10 IC50, please, for this compound: C[C@@H]1CN(C(c2cccc(C(F)(F)F)c2)C2CC2)CCN1CC(=O)O (some centres unmarked) [Cpd 77, dihydrochloride salt]
1.61

// Input: `C[C@@H]1CN(C(c2ccc(Cl)cc2)c2ccc(Cl)cc2)CCN1CC(=O)O` . Output its log10 IC50 only.
0.68

Please report the measured log10 IC50 for C[C@@H]1CN([C@H](c2ccccc2)c2ccc(C#Cc3ccccc3)cc2)CCN1CC(=O)O [Cpd 55A]
0.18

Quickly give me recorded log10 IC50 for `C[C@@H]1CN([C@H](c2ccccc2)c2cccc(-c3ccccc3)c2)CCN1CC(=O)O`
-0.03

Tell me measured log10 IC50 for `C[C@@H]1CN(C(c2ccc(Cl)cc2)c2ccc(Cl)cc2)CCN1[C@H](C)C(=O)O` please.
3.34

Return log10 IC50 for the following compound: C[C@@H]1CN([C@H](c2ccccc2)c2cccc(Br)c2)CCN1CC(=O)O [Cpd 20, dihydrochloride salt]
0.18

Please supply the value of reported log10 IC50 for the item `Cc1ccc(-c2ccc([C@@H](c3ccccc3)N3CCN(CC(=O)O)[C@H](C)C3)cc2)cc1`
0.86

Write down log10 IC50 measured for item `Cc1cccc([C@@H](c2ccccc2)N2CCN(CC(=O)O)[C@H](C)C2)c1`
1.25

Tell me log10 IC50 reported for `O=C(O)CN1CCN([C@H](c2ccccc2)c2cccc(C(F)(F)F)c2)CC1`
1.90
